# Test system: MOLT-4 leukemia
# assay: NCI tumour cell line growth inhibition, 48 h
testReadout: TGI

Record `O=C(CNc1ccccc1C(=O)O)Nn1cnc2ccc(S(=O)(=O)Nc3ccccc3C(=O)O)cc2c1=O` / MOLT-4 leukemia, TGI recorded as > 100 µM

----------
# Tested on: HOP-62 NSCLC
# assay: NCI tumour cell line growth inhibition, 48 h
Quick reference: TGI of the listed items.

Answered examples (5):
{"columns": ["compound", "testReadout", "dataValue"],
 "data": [
  ["O=C1NC(O)n2c(=O)[nH]c(=O)n21 (stereo unspecified)", "TGI", "> 100 µM"],
  ["O=S(=O)(Nc1nc2ccccc2nc1N1CCCCCC1)c1ccccc1", "TGI", "84.5 µM"],
  ["C/C(=C1\\N=C(c2ccccc2)OC1=O)c1ccccc1", "TGI", "> 100 µM"],
  ["Cc1cccc(C2NC(=O)c3ccccc3N2)c1 (stereo unspecified)", "TGI", "97.1 µM"],
  ["Cc1n[nH]c2ccccc2c1=O", "TGI", "> 100 µM"]
]}

For `O=C1/C(=C/c2ccccc2)Oc2cc(O)ccc21` the compound record lists TGI as > 100 µM

For COc1ccccc1NC(=O)C(=O)C(C(=O)c1ccccc1F)C1OC(=O)c2ccccc21 (stereo unspecified) the compound record lists TGI as > 100 µM

For `O=c1[nH]c(=O)n(COC(CO)CO)cc1-c1ccccc1` the compound record lists TGI as > 100 µM

----------
Quick reference: TGI of the listed items.
# System: HCC-2998 colon
# assay: NCI tumour cell line growth inhibition, 48 h

{"columns": ["compound", "dataValue"],
 "data": [
  ["O=C1CC23CCCCCCCCCCC2(C1)CC(=O)C3 (centres undefined)", "> 100 µM"],
  ["NC(=O)CCC(N=c1c2ccccc2n(O)c2ccccc12)C(=O)O (centres undefined)", "> 100 µM"],
  ["COc1ccc2c(c1)C(=O)c1c-2c(OCCCN(C)C)nc2cc(Br)ccc12", "22.7 µM"],
  ["Clc1ccccc1C(Nc1cnccn1)Nc1cnccn1", "> 100 µM"],
  ["O=c1c(Cc2ccccc2)c(O)cc2n1CCC2", "> 100 µM"],
  ["OCc1ccc(N(Cc2ccc(F)cc2)Cc2ccc(F)cc2)cc1Cl", "30.8 µM"]
]}

For Cn1/c(=N\N=C2\C=C3CCCCC3(C)CC2)sc2ccccc21 (centres undefined) the compound record lists TGI as > 100 µM

For `CCOC(=O)NC(=S)N(CC(=O)c1cc(OC)c(OC)c(OC)c1)c1ccc(Cl)cc1` the compound record lists TGI as > 100 µM

For `O=C(Nc1ccc(Cl)cc1C(F)(F)F)C(=O)Nn1c(=S)[nH]c2ccccc2c1=O` the compound record lists TGI as > 100 µM

----------
# Tested on: CAKI-1 renal
# assay: NCI tumour cell line growth inhibition, 48 h
Quick reference: TGI of the listed items.
The response must be a number in µM with no trailing unit.

Answered examples (3):
{"columns": ["compound", "TGI / µM"],
 "data": [
  ["COP(=O)(OC)OCN(C)CC/C=C(\\C)CC/C=C(\\C)CCC=C(C)C", 33.8],
  ["CC(=O)NC1C(OCc2ccccc2)OC(CO)C(O)C1OC(C)C(=O)N[C@@H](C)C(=O)N[C@H](CCC(=O)NCCNCCNc1c2ccccc2nc2cccc([N+](=O)[O-])c12)C(N)=O (stereo not given in full)", 0.565],
  ["CC1=NN(C(=O)CC(=O)Nc2cccc(C)c2)C(=O)C1N=Nc1ccc(S(=O)(=O)CCOS(=O)(=O)O)cc1 (stereo not given)", 2.96]
]}

# evaluate next
For `O=C1Nc2ccccc2/C1=C\c1c(Cl)n(-c2ccccc2)c2ccccc12` the compound record lists TGI as 21.9
